target: T1, human ROR1-hFc fusion protein (extracellular domain) (human); assay: SPR, human ROR1 ECD-Fc on chip;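 note: SPR binding kinetics of VNAR and VNAR-Fc molecules run at a range of concentrations over immobilised target, rate and affinity constants fitted with QDat software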
T1 construct: Whole entry 'human ROR1-Fc (CHO)'; also called hROR1; huROR1-Fc
T1 sequence (chain, as listed by the source limits assumed): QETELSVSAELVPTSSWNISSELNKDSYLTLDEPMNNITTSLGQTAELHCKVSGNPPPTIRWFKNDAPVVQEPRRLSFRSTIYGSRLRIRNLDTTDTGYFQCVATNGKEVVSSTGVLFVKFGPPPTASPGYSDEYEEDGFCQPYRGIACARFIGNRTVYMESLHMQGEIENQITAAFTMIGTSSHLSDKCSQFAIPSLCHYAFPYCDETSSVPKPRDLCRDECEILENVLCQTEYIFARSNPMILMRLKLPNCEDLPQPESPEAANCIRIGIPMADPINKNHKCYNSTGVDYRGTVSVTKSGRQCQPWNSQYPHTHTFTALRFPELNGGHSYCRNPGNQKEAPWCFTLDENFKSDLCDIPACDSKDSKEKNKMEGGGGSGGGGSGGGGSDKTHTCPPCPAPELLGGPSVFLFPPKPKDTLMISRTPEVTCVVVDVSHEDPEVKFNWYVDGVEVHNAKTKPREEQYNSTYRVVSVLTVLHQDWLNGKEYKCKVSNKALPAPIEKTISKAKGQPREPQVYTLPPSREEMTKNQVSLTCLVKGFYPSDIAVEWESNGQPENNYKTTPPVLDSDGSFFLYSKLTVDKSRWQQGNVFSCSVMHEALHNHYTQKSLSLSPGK
experimental readout: koff (s⁻¹)
Please give a number only; it is taken to be in s⁻¹.

Query (binder): B1 humanised V7 with His6myc tag (VNAR, VNAR; also called B1V7) VNAR: ASVDQSPSSASASVGDRLTITCVVTGANYGLAATYWYRKNPGSSNQERISISGRYSESVNKRTMSFTLTISSLQPEDSATYYCKAYPWGAGAPWLVQWYDGAGTKLEVKQ ; field requested: koff
5.54e-05

Query (binder): B1 G1 (humanised/grafted B1) with His6myc tag (VNAR, VNAR) VNAR: TRVDQSPSSLSASVGDRVTITCVLTGANYGLASTYWYRKNPGSSNKEQISISGRYSESVNKGTKSFTLTISSLQPEDSATYYCRAYPWGAGAPWLVQWYDGAGTKVEIKQ ; field requested: koff
0.0162

Query (binder): P3A1 G1 dimer (VNAR, humanised VNAR dimer) TRVDQSPSSLSASVGDRVTITCVLTDTSYGLYSTYWYRKNPGSSNKEQISISGRYSESVNKGTKSFTLTISSLQPEDSATYYCRAREARHPWLRQWYDGAGTKVEIKGGGGSGGGGSGGGGSGGGGSGGGGSTRVDQSPSSLSASVGDRVTITCVLTDTSYGLYSTYWYRKNPGSSNKEQISISGRYSESVNKGTKSFTLTISSLQPEDSATYYCRAREARHPWLRQWYDGAGTKVEIKQASGAHHHHHHGAEFEQKLISEEDL ; field requested: koff
0.00147

Query (binder): P3A1 G2 dimer (VNAR, humanised VNAR dimer) TRVDQSPSSLSASVGDRVTITCVLTDTSYGLYSTYWYRKNPGTTDWERMSIGGRYSESVNKGAKSFTLTISSLQPEDSATYYCRAREARHPWLRQWYDGAGTKVEIKGGGGSGGGGSGGGGSGGGGSGGGGSTRVDQSPSSLSASVGDRVTITCVLTDTSYGLYSTYWYRKNPGTTDWERMSIGGRYSESVNKGAKSFTLTISSLQPEDSATYYCRAREARHPWLRQWYDGAGTKVEIKQASGAHHHHHHGAEFEQKLISEEDL ; field requested: koff
0.00119

Provenance of the data: patent US20230203155A1
